METHOD: RLM Cl
Assay type: in vitro ADME
MEASURE NAME: RLM Cl (mL/min/kg)
Your answer is read as mL/min/kg, so omit the unit and give the number.

// lookup RLM Cl for O=C(NCCS(=O)(=O)c1ccc(C(F)(F)F)cn1)c1ccc(-c2ccccc2)cc1
38.7

// lookup RLM Cl for Cl.O=C(Cc1ccc(-c2ccccc2)cc1)Nc1cc(C2CC2)n[nH]1
50

// lookup RLM Cl for CN(CCc1c[nH]c2ccccc12)C(=O)c1ccc(B2C=CC=CN2)cc1
52.4

###

METHOD: Solubility FASSIF (fasted state simulated intestinal fluid)
Assay type: physicochemical
// not met strictly below 100 µM in solubility; met otherwise

Hello, I need to know if COc1ccccc1N1CCN(CCCCNC(=O)c2ccc(B3C=CC=CN3)cc2)CC1 has measured solubility not below 100 µM. Thanks!
met

Hello, I need to know if O=C(O)Cc1ccc(B2C=CC=CN2)cc1 has measured solubility not below 100 µM. Thanks!
met

Hello, I need to know if O=C(NC1CCN(Cc2ccccc2)C1)c1ccc(-c2ccccc2)cc1 (centres unmarked) has measured solubility not below 100 µM. Thanks!
not met

Hello, I need to know if Cl.O=C(Cc1ccc(-c2ccccc2)cc1)Nc1cc(C2CC2)n[nH]1 has measured solubility not below 100 µM. Thanks!
not met

Hello, I need to know if O=C(O)Cc1ccc(-c2ccccc2)cc1 has measured solubility not below 100 µM. Thanks!
met

Hello, I need to know if O=C(NC1CCN(Cc2ccccc2)C1)c1ccc(B2C=CC=CN2)cc1 (centres unmarked) has measured solubility not below 100 µM. Thanks!
met

Hello, I need to know if CN(CCc1c[nH]c2ccccc12)C(=O)c1ccc(B2C=CC=CN2)cc1 has measured solubility not below 100 µM. Thanks!
not met

Hello, I need to know if O=C(NCCS(=O)(=O)c1ccc(C(F)(F)F)cn1)c1ccc(-c2ccccc2)cc1 has measured solubility not below 100 µM. Thanks!
not met

Hello, I need to know if O=C(NCc1ccncc1)c1ccc(B2C=CC=CN2)cc1 has measured solubility not below 100 µM. Thanks!
met

Hello, I need to know if CC(C)[C@@H](CN1CCN(c2cccc(O)c2)[C@@H](C)C1)NC(=O)c1ccc(B2C=CCCN2)cc1 has measured solubility not below 100 µM. Thanks!
met

Hello, I need to know if CN(CCc1c[nH]c2ccccc12)C(=O)c1ccc(-c2ccccc2)cc1 has measured solubility not below 100 µM. Thanks!
not met

###

TARGET: CDK2 (Homo sapiens)
MEASURE NAME: IC50
Record the result as number plus unit.

// lookup IC50 for O=C(Cc1ccc(B2C=CC=CN2)cc1)Nc1cc(C2CC2)[nH]n1
240 nM

###

TARGET: Dopamine D2 (Homo sapiens)
Sequence (P14416 whole entry): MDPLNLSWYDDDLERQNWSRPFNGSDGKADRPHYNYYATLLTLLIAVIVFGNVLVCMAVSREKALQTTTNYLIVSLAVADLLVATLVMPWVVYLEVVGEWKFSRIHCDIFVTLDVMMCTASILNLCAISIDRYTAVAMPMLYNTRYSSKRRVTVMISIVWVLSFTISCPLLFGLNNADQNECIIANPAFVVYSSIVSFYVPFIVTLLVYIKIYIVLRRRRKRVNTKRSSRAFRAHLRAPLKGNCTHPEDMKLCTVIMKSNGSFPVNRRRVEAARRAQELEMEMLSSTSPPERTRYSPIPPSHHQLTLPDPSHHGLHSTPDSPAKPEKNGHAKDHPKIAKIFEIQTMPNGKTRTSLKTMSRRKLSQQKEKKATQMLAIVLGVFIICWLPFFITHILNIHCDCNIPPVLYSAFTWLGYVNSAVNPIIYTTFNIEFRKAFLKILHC
METHOD: Dopamine D2 antagonist
MEASURE NAME: IC50 (nM)
Your answer is read as nM, so omit the unit and give the number.

// lookup IC50 for COc1ccccc1N1CCN(CCCCNC(=O)c2ccc(B3C=CC=CN3)cc2)CC1
520

###

Field: solubility. Provide a value for each of the compounds that follow.
METHOD: Solubility pH = 6.8
Type: physicochemical
TEST CONDITIONS: aqueous buffer

// lookup solubility for O=C(NCc1ccncc1)c1ccc(B2C=CC=CN2)cc1
88 µM

// lookup solubility for CN(CCc1c[nH]c2ccccc12)C(=O)c1ccc(-c2ccccc2)cc1
< 5 µM

// lookup solubility for CN(CCc1c[nH]c2ccccc12)C(=O)c1ccc(B2C=CC=CN2)cc1
< 5 µM

// lookup solubility for O=C(NCCS(=O)(=O)c1ccc(C(F)(F)F)cn1)c1ccc(-c2ccccc2)cc1
< 4 µM

// lookup solubility for CC(C)[C@@H](CN1CCN(c2cccc(O)c2)[C@@H](C)C1)NC(=O)c1ccc(-c2ccccc2)cc1
50 µM

// lookup solubility for Cl.O=C(Cc1ccc(-c2ccccc2)cc1)Nc1cc(C2CC2)n[nH]1
< 4 µM
